# Test system: MDA-MB-468 breast
# test.method.notes: NCI tumour cell line growth inhibition, 48 h

smiles.notation | GI50
O=C(NNc1nc2cc(F)cc(F)c2n2cccc12)c1ncccn1 | 0.59 µM
COc1ccc(-c2cnnn2-c2nonc2-n2cccc2)cc1 | 0.13 µM
C#CCOc1cccc(Nc2ncnc3c(NC(=O)C=C)cccc23)c1 | 4.91 µM
Cn1cc(-c2csc(-c3cn(CCCCN4CCCCC4)c4ccccc34)n2)c2cccnc21 | 1.61 µM
ClCCN(CCCl)c1ccc(CNc2ccccc2)cc1 | 2.14 µM

----------
# System: MDA-MB-468 breast
# test.method.notes: NCI tumour cell line growth inhibition, 48 h
measured.parameter: TGI (µM)

smiles.notation | system.tested | qualifying.sign | quantitative.result
COc1ccc(-c2cnnn2-c2nonc2-n2cccc2)cc1 | MDA-MB-468 breast | = | 0.721
CC(C)[C@H](O)C(=O)N[C@@H](C)C(=O)N[C@@H]1C(=O)N(C)CCc2ccccc21 | MDA-MB-468 breast | > | 100
Nc1cc2c(cc1Br)[nH]c(=O)c1ccccc12 | MDA-MB-468 breast | = | 5.41
Nc1cc(Br)c(-c2nnc(CCC(=O)c3nc4ccccc4[nH]3)o2)c(Br)c1 | MDA-MB-468 breast | = | 6.97
Cn1cc(-c2csc(-c3cn(CCCCN4CCCCC4)c4ccccc34)n2)c2cccnc21 | MDA-MB-468 breast | = | 3.29
C=CC(=O)N1CN(C(=O)C=C)CN(C(=O)C=C)C1 | MDA-MB-468 breast | = | 3.4
O=C(/C(=C\c1c(-c2ccccc2)[nH]c2ccccc12)S(=O)(=O)c1ccccc1)c1ccccc1 | MDA-MB-468 breast | > | 100

----------
# System: MDA-MB-468 breast
# test.method.notes: NCI tumour cell line growth inhibition, 48 h; in the data active = GI50 below about 0.43 µM; inactive = the rest
Labels: active, inactive

smiles.notation | system.tested | assigned.category
COc1ccc(C(=O)/C=C/c2cccc3ccccc23)cc1S(N)(=O)=O | MDA-MB-468 breast | inactive
Cc1ccc2nc(-c3ccc(-c4nnc(SCC(=O)Nc5ccc(Cl)cc5)o4)cc3)[nH]c2c1 | MDA-MB-468 breast | inactive
COc1cc2c(Nc3cc(Cl)c(OC)c(Cl)c3)c(C#N)cnc2cc1OCCCN1CCN(C)CC1 | MDA-MB-468 breast | active
CC1(C)CN=C(NN=C(/C=C/c2ccc(C(F)(F)F)cc2)/C=C/c2ccc(C(F)(F)F)cc2)NC1 | MDA-MB-468 breast | inactive
COc1ccc(/C(C)=C(\c2ccc(OCCN3CCCCCC3)cc2)c2ccc(OC(=O)C3CCCCC3)cc2)cc1 | MDA-MB-468 breast | inactive
